Tested on: Rattus norvegicus
run.description: In vivo inflammatory activity measured on Carrageenan foot-pad edema (CFE) in rats, peroral administration
Format: functional
Consider the cut-off 6 mg/kg. If the recorded ID40 is strictly smaller, the label is 1.0; if not, the label is 0.0.

Query :: For this compound, is ID40 lower than 6 mg/kg? "CC(C)(C)c1cc(-c2nnc(N)s2)cc(C(C)(C)C)c1O"
Result :: 1.0

Query :: For this compound, is ID40 lower than 6 mg/kg? "CC(C)(C)c1cc(/C=C2\CCOC2=O)cc(C(C)(C)C)c1O"
Result :: 0.0

Query :: For this compound, is ID40 lower than 6 mg/kg? "CC(C)(C)c1cc(-c2n[nH]c(=S)s2)cc(C(C)(C)C)c1O.C[N+](C)(C)CCO"
Result :: 1.0

Query :: For this compound, is ID40 lower than 6 mg/kg? "CC(C)(C)c1cc(-c2nnc(N)o2)cc(C(C)(C)C)c1O"
Result :: 0.0

Query :: For this compound, is ID40 lower than 6 mg/kg? "Cc1ccc(Cl)c(Nc2ccccc2C(=O)O)c1Cl"
Result :: 1.0

Query :: For this compound, is ID40 lower than 6 mg/kg? "CC(C)(C)c1cc(-c2nnc(S)o2)cc(C(C)(C)C)c1O"
Result :: 1.0

Query :: For this compound, is ID40 lower than 6 mg/kg? "CON1CC/C(=C\c2cc(C(C)(C)C)c(O)c(C(C)(C)C)c2)C1=O"
Result :: 0.0
